- System: AsPC-1 cells
- test-details: AsPC-1 cell proliferation assay (CellTiter Glo)
- Type: cell-based
- condition-parameters: Homo sapiens, ASPC1, 144 h, 6 days
value-kind: IC50

compound	result
CCn1nccc1-c1ccc([C@H](CO)NC(=O)[C@@H]2C[C@@H](O)CN2C(=O)[C@H](C(C)C)n2cc(-c3ccc(COc4c(-c5c(C)c(F)cc6[nH]ncc56)c(C5CC5)cc5c(N6C[C@@H]7C[C@H]6CN7)nc(OC6CCC(OC)C6)nc45)cc3)nn2)cc1 (stereo partly shown)	< 10 nM
CCn1nccc1-c1ccc([C@H](CO)NC(=O)[C@@H]2C[C@@H](O)CN2C(=O)[C@H](C(C)C)n2cc(-c3ccc(COc4c(-c5c(C)c(F)cc6[nH]nc(F)c56)c(C5CC5)cc5c(N6C[C@@H]7C[C@H]6CN7)nc(OC[C@H](C)OC)nc45)cc3)nn2)cc1	< 10 nM
CO[C@@H](C)COc1nc(N2C[C@@H]3C[C@H]2CN3)c2cc(C3CC3)c(-c3c(C)c(F)cc4[nH]ncc34)c(OCc3ccc(-c4cn([C@H](C(=O)N5C[C@H](O)C[C@H]5C(=O)N[C@H](C#Cc5nn(C)c6ccccc56)CO)C(C)C)nn4)cc3)c2n1	< 10 nM
CCn1nccc1-c1ccc([C@H](CO)NC(=O)[C@@H]2C[C@@H](O)CN2C(=O)[C@H](C(C)C)n2cc(-c3ccc(COc4c(-c5c(C)c(F)cc6[nH]ncc56)c(C5CC5)cc5c(N6CCCNCC6)nc(OC[C@@H]6CCCO6)nc45)cc3)nn2)cc1	< 10 nM
